Measured IC50 by item
Assay: Cytotoxicity against MDCK2 cells assessed as reduction in cell viability after 48 hrs by MTT assay
Assay type: cell-based
Conditions: Canis lupus familiaris, MDCK-II
measurement.type: IC50 (µM)

test.smiles | display.unit | endpoint.value
O=[N+]([O-])c1ccc(CSc2nnnn2C2CCCCC2)c([N+](=O)[O-])c1 | µM | 17
O=[N+]([O-])c1cc(C[Se]c2nnnn2Cc2ccccc2)cc([N+](=O)[O-])c1 | µM | 22
O=[N+]([O-])c1cc(COc2nnnn2-c2ccc(Cl)c(Cl)c2)cc([N+](=O)[O-])c1 | µM | 22

* * *

Tested on: Mycobacterium kansasii
Experiment: Antimycobacterial activity against Mycobacterium kansasii CNCTC My 235/80 after 14 days by micromethod
Assay type: functional
Settings: CNCTC My 235/80, 336 h
Measured MIC by item

molecule | tested.on | MIC [µM]
O=[N+]([O-])c1cc(CSc2nnn[nH]2)cc([N+](=O)[O-])c1 | Mycobacterium kansasii | 1000
O=[N+]([O-])c1ccc(CSc2nnnn2-c2ccc([N+](=O)[O-])cc2)cc1 | Mycobacterium kansasii | 250
COc1ccc(-n2nnnc2SCc2cc(N)cc([N+](=O)[O-])c2)cc1 | Mycobacterium kansasii | 250
CCN(CC)c1ccc(-n2nnnc2SCc2cc([N+](=O)[O-])cc([N+](=O)[O-])c2)cc1 | Mycobacterium kansasii | 8
COc1cc(-n2nnnc2OCc2cc([N+](=O)[O-])cc([N+](=O)[O-])c2)cc(OC)c1OC | Mycobacterium kansasii | 16
O=[N+]([O-])c1cc(CSc2cccc[n+]2[O-])cc([N+](=O)[O-])c1 | Mycobacterium kansasii | 32
c1ccc(C[Se]c2nnnn2-c2ccccc2)cc1 | Mycobacterium kansasii | 8
O=C(O)c1cccc(-n2nnnc2SCc2cc([N+](=O)[O-])cc([N+](=O)[O-])c2)c1 | Mycobacterium kansasii | 1000
COc1ccc(-n2nnnc2S(=O)(=O)Cc2cc([N+](=O)[O-])cc([N+](=O)[O-])c2)cc1 | Mycobacterium kansasii | 250
COc1ccccc1-n1nnnc1SCc1cc([N+](=O)[O-])cc([N+](=O)[O-])c1 | Mycobacterium kansasii | 125
O=[N+]([O-])c1cc(CSCc2ccccc2)cc([N+](=O)[O-])c1 | Mycobacterium kansasii | 125
c1ccc(C[Se]c2nnnn2C2CCCCC2)cc1 | Mycobacterium kansasii | 32
CCCCCCn1nnnc1SCc1cc([N+](=O)[O-])cc([N+](=O)[O-])c1 | Mycobacterium kansasii | 4
Cn1nnnc1SCc1cc([N+](=O)[O-])cc([N+](=O)[O-])c1 | Mycobacterium kansasii | 16
O=[N+]([O-])c1cc(CSc2nnnn2-c2ccc(Cl)c(Cl)c2)cc([N+](=O)[O-])c1 | Mycobacterium kansasii | 1
O=[N+]([O-])c1cc(COc2nnnn2-c2ccccc2)cc([N+](=O)[O-])c1 | Mycobacterium kansasii | 16
O=[N+]([O-])c1ccc(CSc2nnnn2C2CCCCC2)c([N+](=O)[O-])c1 | Mycobacterium kansasii | 8
Cc1ccc(-n2nnnc2SCc2cc([N+](=O)[O-])cc([N+](=O)[O-])c2)cc1C | Mycobacterium kansasii | 250
Nc1cc(N)cc(CSc2nnnn2-c2ccccc2)c1 | Mycobacterium kansasii | 1000
O=[N+]([O-])c1cc(CSc2nnnn2C23CC4CC(CC(C4)C2)C3)cc([N+](=O)[O-])c1 | Mycobacterium kansasii | 8
O=[N+]([O-])c1cc(CSc2nnnn2-c2cccc(F)c2)cc([N+](=O)[O-])c1 | Mycobacterium kansasii | 4
O=[N+]([O-])c1cc(C[Se]c2nnnn2C2CCCCC2)cc([N+](=O)[O-])c1 | Mycobacterium kansasii | 1
COC(=O)c1cccc(-n2nnnc2SCc2cc([N+](=O)[O-])cc([N+](=O)[O-])c2)c1 | Mycobacterium kansasii | 500
O=[N+]([O-])c1cc(CSc2ccccc2)cc([N+](=O)[O-])c1 | Mycobacterium kansasii | 250
N#CSCc1cc([N+](=O)[O-])cc([N+](=O)[O-])c1 | Mycobacterium kansasii | 8
O=[N+]([O-])c1cc(COc2nnnn2-c2ccc(Br)cc2)cc([N+](=O)[O-])c1 | Mycobacterium kansasii | 16
O=[N+]([O-])c1ccc(CSc2nnnn2-c2ccccc2)c([N+](=O)[O-])c1 | Mycobacterium kansasii | 62
O=[N+]([O-])c1cc(C[S+]([O-])c2nnnn2C2CCCCC2)cc([N+](=O)[O-])c1 (stereo not given) | Mycobacterium kansasii | 16
CSCc1cc([N+](=O)[O-])cc([N+](=O)[O-])c1 | Mycobacterium kansasii | 125
O=[N+]([O-])c1cc(CSc2nnnn2C2CCCCC2)cc([N+](=O)[O-])c1 | Mycobacterium kansasii | 4
